TARGET_OR_SYSTEM: EPHB1 (UniProt P54762)
Sequence (P54762 whole entry, looked up): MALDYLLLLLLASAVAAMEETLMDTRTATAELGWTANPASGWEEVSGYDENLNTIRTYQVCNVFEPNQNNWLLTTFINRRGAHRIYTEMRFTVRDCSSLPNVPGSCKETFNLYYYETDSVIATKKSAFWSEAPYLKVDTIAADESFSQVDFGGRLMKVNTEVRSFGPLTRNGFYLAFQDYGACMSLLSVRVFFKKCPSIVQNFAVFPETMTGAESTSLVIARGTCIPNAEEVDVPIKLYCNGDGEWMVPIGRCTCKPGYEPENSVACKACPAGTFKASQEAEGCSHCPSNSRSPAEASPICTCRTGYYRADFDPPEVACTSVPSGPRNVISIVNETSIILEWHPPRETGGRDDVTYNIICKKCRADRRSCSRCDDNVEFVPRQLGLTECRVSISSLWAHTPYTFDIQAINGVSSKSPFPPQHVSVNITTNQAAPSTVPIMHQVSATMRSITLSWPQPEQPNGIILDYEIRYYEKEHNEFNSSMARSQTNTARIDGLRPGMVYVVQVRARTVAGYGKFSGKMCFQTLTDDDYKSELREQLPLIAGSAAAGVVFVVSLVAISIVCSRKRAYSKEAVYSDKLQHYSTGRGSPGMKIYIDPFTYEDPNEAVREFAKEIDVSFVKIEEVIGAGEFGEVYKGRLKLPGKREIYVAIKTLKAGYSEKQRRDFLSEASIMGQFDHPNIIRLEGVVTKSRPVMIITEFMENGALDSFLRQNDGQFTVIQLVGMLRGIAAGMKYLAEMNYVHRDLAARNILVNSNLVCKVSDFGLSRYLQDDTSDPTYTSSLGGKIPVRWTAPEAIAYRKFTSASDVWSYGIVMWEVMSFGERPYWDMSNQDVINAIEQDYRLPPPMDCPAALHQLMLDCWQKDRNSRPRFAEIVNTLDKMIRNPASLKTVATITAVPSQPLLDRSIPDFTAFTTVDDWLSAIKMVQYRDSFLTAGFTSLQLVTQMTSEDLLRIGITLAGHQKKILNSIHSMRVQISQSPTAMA
ASSAY_NAME: phosphorylation enrichment, bacterial display (enrichment ratio); higher = better substrate or ligand; peptides without Tyr show the background
READOUT_KIND: phosphorylation enrichment

input_sequence="NPQKSYFICLF [WAS_Y83_R86C_YF]" readout_kind="phosphorylation enrichment" observed_measurement=0.525
input_sequence="KMTGRYEMYAR [UPB1_Y362]" readout_kind="phosphorylation enrichment" observed_measurement=0.58
input_sequence="HKLSFCEFDFE [BTK_Y40_Y40C_YF]" readout_kind="phosphorylation enrichment" observed_measurement=0.934

====

TARGET_OR_SYSTEM: Grb2 SH2 (UniProt P62993)
Sequence (P62993 whole entry, looked up): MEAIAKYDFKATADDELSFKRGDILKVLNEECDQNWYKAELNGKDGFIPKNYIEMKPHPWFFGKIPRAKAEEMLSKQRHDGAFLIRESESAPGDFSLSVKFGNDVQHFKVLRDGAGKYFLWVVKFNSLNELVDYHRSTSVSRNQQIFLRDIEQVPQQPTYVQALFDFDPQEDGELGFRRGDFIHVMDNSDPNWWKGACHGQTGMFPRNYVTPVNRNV
ASSAY_NAME: SH2 binding enrichment of the phosphorylated peptide, bacterial display (enrichment ratio); higher = better substrate or ligand; peptides without Tyr show the background
READOUT_KIND: SH2 binding enrichment

input_sequence="SIKHKYVTALY [KCNH2_Y611_D609H]" readout_kind="SH2 binding enrichment" observed_measurement=0.761
input_sequence="RLLRGYDQSAF [HLA-C_Y137_YF]" readout_kind="SH2 binding enrichment" observed_measurement=1.26
input_sequence="IEPCIYIPEDD [XPNPEP3_Y455_G453C]" readout_kind="SH2 binding enrichment" observed_measurement=1.2
input_sequence="HFMKLYEEKTG [PARP1_Y618]" readout_kind="SH2 binding enrichment" observed_measurement=0.766
input_sequence="IDDNQYAYLKA [HNF4A_Y286_E285Q]" readout_kind="SH2 binding enrichment" observed_measurement=0.87
input_sequence="TFMKKYPKVFL [CNBD1_Y70_Q69K]" readout_kind="SH2 binding enrichment" observed_measurement=1.12
input_sequence="QFNPEYVQQAS [LRRC7_Y1058_H1054Y_YF]" readout_kind="SH2 binding enrichment" observed_measurement=0.871
input_sequence="NLSVRYDSSLK [ABCC8_Y1353]" readout_kind="SH2 binding enrichment" observed_measurement=0.887
input_sequence="KAEQLYIGVTV [EFHC2_Y509_E507Q]" readout_kind="SH2 binding enrichment" observed_measurement=0.708
input_sequence="IYKAAYFGVYD [SLC25A4_Y191_R188K]" readout_kind="SH2 binding enrichment" observed_measurement=0.923
input_sequence="LLTALYFISWG [KCNH2_Y780_R784W]" readout_kind="SH2 binding enrichment" observed_measurement=1.01
input_sequence="YCRHNYGVGES [HLA-DRB1_Y112_V115G]" readout_kind="SH2 binding enrichment" observed_measurement=0.936
input_sequence="SKNSKYNAGST [PSEN1_Y315_E318G]" readout_kind="SH2 binding enrichment" observed_measurement=0.581
input_sequence="PLDGESFTLQI [TP53_Y327_Y327S]" readout_kind="SH2 binding enrichment" observed_measurement=0.663
input_sequence="VSNFNYFYHRE [KCNA1_Y413]" readout_kind="SH2 binding enrichment" observed_measurement=1.07
input_sequence="MMVGAYSSLEG [ECPAS_Y470_T472S]" readout_kind="SH2 binding enrichment" observed_measurement=0.82
input_sequence="WASQRYGRELR [BAD_Y110_A107S]" readout_kind="SH2 binding enrichment" observed_measurement=0.861
input_sequence="GKTFTYRSVFF [ZNF80_Y200]" readout_kind="SH2 binding enrichment" observed_measurement=0.878
input_sequence="KDKLPYLFDDP [GPX2_Y125_P126L_YF]" readout_kind="SH2 binding enrichment" observed_measurement=0.731
input_sequence="SVTCTYSPAFN [TP53_Y126_L130F]" readout_kind="SH2 binding enrichment" observed_measurement=0.664
input_sequence="RRERPYGGGGG [FUS_Y526]" readout_kind="SH2 binding enrichment" observed_measurement=0.703
input_sequence="RFMVGYEMLAQ [GALT_Y339_K334R]" readout_kind="SH2 binding enrichment" observed_measurement=0.836
input_sequence="DEEPPHRGPFC [SASH1_Y551_Y551H]" readout_kind="SH2 binding enrichment" observed_measurement=1.03
input_sequence="FIRRDYEACKA [BBS4_Y48_K46R_YF]" readout_kind="SH2 binding enrichment" observed_measurement=0.918
input_sequence="HKLSFCEFDFE [BTK_Y40_Y40C_YF]" readout_kind="SH2 binding enrichment" observed_measurement=1.11
input_sequence="VTQEQYELHCE [CBL_Y368_Y371H]" readout_kind="SH2 binding enrichment" observed_measurement=0.656
input_sequence="FETVKYINNER [ABCB7_Y345_F346I_YF]" readout_kind="SH2 binding enrichment" observed_measurement=1.23
input_sequence="LGGSPYPSVPV [FGFR1_Y701_G703S]" readout_kind="SH2 binding enrichment" observed_measurement=0.915
